Assay: BSK_3C_VCAM1: BioMAP Diversity Plus: 3C Assay for Vascular cell adhesion molecule 1 (VCAM1) Biomarker Activity (AID 2282999)
Settings: BioMAP 3C HUVEC, VCAM1 ELISA, cytokine-stimulated; actives raise or lower the signal
The source made the active and inactive calls. The calls were made as follows: active = hit-call score of the fitted dose curve at least 0.9, where 1 is the maximum; inactive = score below 0.9.
Respond only with the outcome that fits, drawn from active, inactive

For this compound, state the assay outcome: Oc1ccccc1Cc1ccccc1O
inactive

###

Assay: ATG_AP_1_CIS: Attagene CIS-FACTORIAL HepG2 Assay for human Activator Protein 1 (AP-1) (AID 2282931)
Conditions: HepG2 Attagene cis-factorial AP-1 reporter mRNA; actives raise or lower the signal
Activity calls are given as the source filed them. Rule for the calls: active = hit-call score of the fitted dose curve at least 0.9, where 1 is the maximum; inactive = score below 0.9.
Respond only with the outcome that fits, drawn from active, inactive

Example cases with answers are listed next.
| compound | groupLabel |
| --- | --- |
| c1ccc2cnccc2c1 | inactive |
| O=C(O)C(F)(F)C(F)(F)C(F)(F)C(F)(F)C(=O)O | inactive |
| CC1(C)[C@@H]2CC[C@@]1(C)C(=O)C2 | inactive |
| N#Cc1ccc(C2CCCc3cncn32)cc1 (stereo not given) | inactive |
| CO[Si](CCCS)(OC)OC | inactive |
| Cc1c(Cl)cccc1Cl | inactive |
| Nc1ccc(C(=O)O)cc1 | inactive |
| CCC(C)C(=O)OCCc1ccccc1 (stereo not given) | inactive |
| O=S(=O)(O)c1ccc(Nc2nc(Nc3ccc(C=Cc4ccc(Nc5nc(Nc6ccc(S(=O)(=O)O)cc6)nc(N(CCO)CCO)n5)cc4S(=O)(=O)O)c(S(=O)(=O)O)c3)nc(N(CCO)CCO)n2)cc1 | inactive |
| COc1ccc(C(=O)c2ccccc2)c(O)c1 | active |

For this compound, state the assay outcome: CC1C(C)(C)C2=C(C(=O)CCC2)C1(C)C (stereo not given)
inactive

For this compound, state the assay outcome: CCC1(C)C(=O)N(Cl)C(=O)N1Cl (stereo not given)
active

For this compound, state the assay outcome: O=C(OCCc1ccccc1)c1ccccc1
inactive

For this compound, state the assay outcome: N=C1C=CC(=C(c2ccc(N)cc2)c2ccc(N)cc2)C=C1
inactive

For this compound, state the assay outcome: CCCCCC1=CCCC1=O
inactive

For this compound, state the assay outcome: CCOC(=O)C1=NOC(c2ccccc2)(c2ccccc2)C1
inactive

For this compound, state the assay outcome: CC(C)(CO)COC(=O)C(C)(C)CO
inactive

For this compound, state the assay outcome: CCCCC1CCC(=O)O1 (stereo not given)
inactive

For this compound, state the assay outcome: CCc1cccc(CC)c1
inactive

For this compound, state the assay outcome: C=C(C)C1CC=C(C)CC1 (stereo not given)
inactive

For this compound, state the assay outcome: CC(C)C(=O)OCCc1ccccc1
inactive

For this compound, state the assay outcome: COC(=O)C=Cc1ccccc1
inactive
